Listed below are compounds with IC50 for HPK1 (Homo sapiens (Human), UniProt Q92918), each taken from published literature.

Below are worked cases with known answers.
{"columns": ["compound", "IC50"],
 "data": [
  ["CN[C@H]1CCN(c2cccc(Nc3cnc(-c4ccnc5c4ccn5C)c4c3C(=O)NC4)n2)C1", "< 100 nM"],
  ["O=c1[nH]ccc2nc(-c3ccnc4[nH]ccc34)cc(Nc3ccc(N4CCC(O)CC4)cn3)c12", "> 1000 nM"],
  ["COCCOC1CN(c2ccc(Nc3cc(-c4ccc(NC(=O)C5CCCCC5)cc4F)nc4cc[nH]c(=O)c34)nc2)C1", "100 to 1000 nM"],
  ["CN(C)Cc1nc(Nc2ccc(-c3cnc4cc(F)ccn34)c3c2C(=O)NC3)ccc1[C@H]1COCCO1 (single isomer, unassigned)", "≤ 100 nM"],
  ["O=C1NCc2c(-c3cnc4cc(F)ccn34)ccc(Nc3ccc([C@@H]4CCOC4)c(CN4CC[C@H](F)C4)n3)c21 (stereo in doubt)", "< 100 nM"],
  ["O=C(Nc1ccc(-c2cc(Nc3ccc(N4CCC(F)(F)CC4)cn3)c3c(=O)[nH]ccc3n2)c(F)c1)C1CCCCC1", "> 1000 nM"],
  ["CN1CCN(c2cccc(Nc3cnc(-c4ccnc5c4ccn5C)c4c3C(=O)NC4)n2)CC1", "< 100 nM"],
  ["CC(C)n1ncc2c(N3CC[C@@H](N)C3)c(NC(=O)c3ccc(=O)n(-c4c(F)cccc4F)n3)cc(F)c21", "< 100 nM"]
]}

**Q:** Please state recorded IC50 (tested on HPK1 (Homo sapiens (Human), UniProt Q92918)) of CNC(=O)c1cncc(-c2cc3c(-c4ccc5c(c4)OCC4CN(C)CCN54)n[nH]c3cc2C#N)c1 (stereo not drawn)
**A:** ≤ 10 nM

**Q:** Please provide the recorded IC50 for CN(C)Cc1nc(Nc2ccc(-c3cnc4cc(F)ccn34)c3c2C(=O)NC3)ccc1N1CCC[C@H](O)C1 , tested on HPK1 (Homo sapiens (Human), UniProt Q92918).
**A:** < 100 nM
